Measured EC50, listed per entry for reference.
Test: Inhibition of hepatitis B virus replication in the HepAD38 cell line.
Assay type: functional, cell-based
Settings: Homo sapiens

| COMPOUND_STRUCTURE_STRING | BOUND_SIGN | EC50 (nM) |
| --- | --- | --- |
| O=C(N/C(C(=O)N1CCCCC1)=C(/Br)c1ccccc1)c1ccc(F)cc1 | = | 860 |
| Cc1ccccc1/C(Br)=C(\NC(=O)c1ccc([N+](=O)[O-])cc1)C(=O)N1CCCCC1 | = | 600 |
| Cc1ccccc1/C(Br)=C(\NC(=O)c1ccccc1)C(=O)N1CCCCC1 | = | 890 |
| Cc1ccc(C(=O)N/C(C(=O)N2CCCCC2)=C(/Br)c2ccccc2)cc1 | = | 2100 |
| O=C(N/C(C(=O)N1CCCCC1)=C(/Cl)c1ccccc1)c1ccccc1 | = | 1200 |
| O=C(N/C(C(=O)N1CCCCC1)=C(/Br)c1ccccc1)c1ccc([N+](=O)[O-])cc1 | = | 350 |
| O=C(N/C(C(=O)N1CCCCC1)=C(/Br)c1ccccc1)c1ccc(Br)cc1 | = | 530 |
| O=C(N/C(C(=O)N1CCCCC1)=C(/Br)c1ccccc1F)c1ccc([N+](=O)[O-])cc1 | = | 310 |
| O=C(N/C(C(=O)N1CCCCC1)=C(/Br)c1ccccc1)c1ccc(C(F)(F)F)cc1 | = | 5000 |
| O=C(N/C(C(=O)N1CCCCC1)=C(/Br)c1ccc(F)cc1)c1ccccc1 | = | 3900 |
| O=C(N/C(C(=O)N1CCCCC1)=C(/Cl)c1ccccc1)c1ccc(C(F)(F)F)cc1 | > | 69000 |
| O=C(N/C(C(=O)N1CCCCC1)=C(/Br)c1ccccc1F)c1ccccc1 | = | 1500 |
| COc1ccc(C(=O)N/C(C(=O)N2CCCCC2)=C(/Br)c2ccccc2)cc1 | = | 1900 |
| COc1ccc(C(=O)N/C(C(=O)N2CCCCC2)=C(/Cl)c2ccccc2)cc1 | = | 5200 |
| O=C(N/C(C(=O)N1CCCCC1)=C(/Br)c1ccccc1)c1ccccc1 | = | 1300 |
| O=C(N/C(C(=O)N1CCCCC1)=C(/Br)c1ccccc1)c1ccc(Cl)cc1 | = | 540 |
| O=C(N/C(C(=O)N1CCCCC1)=C(/Br)c1ccc(F)cc1)c1ccc([N+](=O)[O-])cc1 | = | 720 |
| COc1ccccc1/C(Br)=C(\NC(=O)c1ccccc1)C(=O)N1CCCCC1 | = | 2100 |
| O=C(N/C(C(=O)N1CCCCC1)=C(/Cl)c1ccc(F)cc1)c1ccccc1 | = | 3100 |
| O=C(N/C(C(=O)N1CCCCC1)=C(/Br)c1ccc(Cl)cc1)c1ccc([N+](=O)[O-])cc1 | = | 1600 |

---

List of CC50 values.
Assay: Reduction of viable cell numbers by 50% was evaluated by HepAD38 cellular assay
Type: ADME, cell-based
Details: human, HepAD38 cells; read-out: TC50 (the source's name)

| COMPOUND_STRUCTURE_STRING | CC50 |
| --- | --- |
| COc1ccccc1/C(Br)=C(\NC(=O)c1ccc([N+](=O)[O-])cc1)C(=O)N1CCCCC1 | > 61 µM |
| O=C(N/C(C(=O)N1CCCCC1)=C(/Br)c1ccccc1F)c1ccc([N+](=O)[O-])cc1 | 42 µM |
| O=C(N/C(C(=O)N1CCCCC1)=C(/Br)c1ccc(Cl)cc1)c1ccc([N+](=O)[O-])cc1 | > 60 µM |
| O=C(N/C(C(=O)N1CCCCC1)=C(/Cl)c1ccccc1)c1ccc(F)cc1 | > 67 µM |
| COc1ccccc1/C(Br)=C(\NC(=O)c1ccccc1)C(=O)N1CCCCC1 | > 70 µM |
